This collection of values is drawn from patent US20260242735A1.

Biological target: human CD33 T268A (human, UniProt P20138 18-364)
Sequence (P20138 18-364 T268A limits assumed): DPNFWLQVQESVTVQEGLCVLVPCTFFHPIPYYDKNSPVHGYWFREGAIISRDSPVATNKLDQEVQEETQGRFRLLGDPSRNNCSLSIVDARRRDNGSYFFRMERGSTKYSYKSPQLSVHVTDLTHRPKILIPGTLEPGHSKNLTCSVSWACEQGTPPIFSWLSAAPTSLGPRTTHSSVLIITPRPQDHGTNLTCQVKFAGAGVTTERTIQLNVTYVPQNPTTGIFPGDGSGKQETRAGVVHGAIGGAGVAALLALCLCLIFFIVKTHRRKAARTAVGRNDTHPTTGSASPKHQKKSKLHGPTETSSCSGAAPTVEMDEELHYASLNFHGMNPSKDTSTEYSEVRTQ
Assay: alanine scan, flow cytometry, HEK293-T;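 also: antibody binding to each alanine-substituted CD33 mutant expressed transiently in HEK293-T, read as fluorescence minus background, mean of duplicates, relative to wild-type CD33 set as 100%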
experimentalReadout: Mean % WT Binding

Consider the binder Refmab #1 (antibody, V domains shown, The alanine scan used IgG or Fab; also called hP67.6) VH: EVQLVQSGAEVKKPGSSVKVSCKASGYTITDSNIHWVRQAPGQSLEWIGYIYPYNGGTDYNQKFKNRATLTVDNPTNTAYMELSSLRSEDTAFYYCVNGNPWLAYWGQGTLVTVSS VL: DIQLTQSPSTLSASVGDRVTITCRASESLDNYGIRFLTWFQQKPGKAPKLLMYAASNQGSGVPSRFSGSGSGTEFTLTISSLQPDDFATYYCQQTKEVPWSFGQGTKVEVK . State its measured Mean % WT Binding. 102 % WT binding

Consider the binder Refmab #2 (antibody, V domains shown, The alanine scan used IgG or Fab) VH: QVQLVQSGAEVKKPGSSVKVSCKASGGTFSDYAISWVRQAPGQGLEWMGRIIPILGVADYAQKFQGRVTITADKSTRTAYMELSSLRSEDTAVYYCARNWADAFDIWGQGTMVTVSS VL: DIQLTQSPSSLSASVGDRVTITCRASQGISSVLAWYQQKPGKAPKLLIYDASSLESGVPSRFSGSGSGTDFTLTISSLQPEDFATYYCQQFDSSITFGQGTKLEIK . State its measured Mean % WT Binding. 107 % WT binding

Consider the binder Refmab #3 (antibody, V domains shown, The alanine scan used IgG or Fab) VH: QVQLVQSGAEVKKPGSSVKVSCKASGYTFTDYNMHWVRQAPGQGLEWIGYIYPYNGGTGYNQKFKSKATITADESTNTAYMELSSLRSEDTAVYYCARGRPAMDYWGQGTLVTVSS VL: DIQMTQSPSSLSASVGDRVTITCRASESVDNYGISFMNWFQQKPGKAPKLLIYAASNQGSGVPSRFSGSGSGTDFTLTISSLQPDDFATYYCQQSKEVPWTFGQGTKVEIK . State its measured Mean % WT Binding. 91.5 % WT binding

Please find the next binder below.
Consider the binder Refmab #4 (antibody, V domains shown, The alanine scan used IgG or Fab) VH: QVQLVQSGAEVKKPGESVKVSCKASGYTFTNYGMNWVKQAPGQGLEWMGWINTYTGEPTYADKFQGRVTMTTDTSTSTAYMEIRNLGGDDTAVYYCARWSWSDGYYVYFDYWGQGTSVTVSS VL: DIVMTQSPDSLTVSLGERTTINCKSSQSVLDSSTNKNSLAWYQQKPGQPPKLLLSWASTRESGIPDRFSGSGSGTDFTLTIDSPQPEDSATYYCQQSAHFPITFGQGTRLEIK . State its measured Mean % WT Binding. 100 % WT binding
